Target: full length GAK protein N-terminally fused with NanoLuc luciferase (Homo sapiens)
Sequence (O14976 2-1311): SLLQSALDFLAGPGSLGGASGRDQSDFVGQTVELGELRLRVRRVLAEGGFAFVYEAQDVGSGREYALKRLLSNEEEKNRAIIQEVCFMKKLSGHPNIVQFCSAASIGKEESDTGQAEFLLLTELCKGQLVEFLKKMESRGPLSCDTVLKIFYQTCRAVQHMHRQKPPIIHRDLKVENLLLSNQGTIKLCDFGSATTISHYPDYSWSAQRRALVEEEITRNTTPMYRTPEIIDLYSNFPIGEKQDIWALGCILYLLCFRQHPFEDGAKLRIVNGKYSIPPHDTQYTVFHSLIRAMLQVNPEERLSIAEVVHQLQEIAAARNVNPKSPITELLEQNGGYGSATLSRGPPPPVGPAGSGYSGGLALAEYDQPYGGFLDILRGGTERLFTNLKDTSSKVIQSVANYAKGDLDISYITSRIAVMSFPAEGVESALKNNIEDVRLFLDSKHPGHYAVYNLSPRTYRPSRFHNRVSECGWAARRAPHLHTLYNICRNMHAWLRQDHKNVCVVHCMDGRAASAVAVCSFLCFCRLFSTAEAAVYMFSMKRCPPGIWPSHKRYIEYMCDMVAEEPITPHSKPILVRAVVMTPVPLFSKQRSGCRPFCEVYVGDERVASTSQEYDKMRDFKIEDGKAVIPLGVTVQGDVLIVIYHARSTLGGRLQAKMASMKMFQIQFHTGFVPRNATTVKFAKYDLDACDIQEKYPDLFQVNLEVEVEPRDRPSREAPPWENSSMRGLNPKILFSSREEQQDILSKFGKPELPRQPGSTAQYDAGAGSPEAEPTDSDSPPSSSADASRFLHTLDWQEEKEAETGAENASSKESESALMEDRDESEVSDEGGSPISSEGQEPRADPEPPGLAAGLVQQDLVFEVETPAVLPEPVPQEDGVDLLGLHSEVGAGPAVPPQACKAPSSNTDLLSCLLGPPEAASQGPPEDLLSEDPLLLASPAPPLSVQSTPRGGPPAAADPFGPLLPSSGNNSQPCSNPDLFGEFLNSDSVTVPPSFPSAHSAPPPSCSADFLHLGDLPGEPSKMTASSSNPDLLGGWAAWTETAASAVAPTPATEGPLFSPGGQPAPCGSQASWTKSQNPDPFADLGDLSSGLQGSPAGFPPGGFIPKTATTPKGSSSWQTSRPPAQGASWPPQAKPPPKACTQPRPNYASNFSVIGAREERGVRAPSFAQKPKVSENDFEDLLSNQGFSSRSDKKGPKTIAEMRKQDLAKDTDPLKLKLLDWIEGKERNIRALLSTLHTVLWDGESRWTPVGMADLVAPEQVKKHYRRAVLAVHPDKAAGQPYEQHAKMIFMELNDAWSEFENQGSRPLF
Assay: cell-based
Set-up: species or system HEK293T
quantityKind: IC50

molecularString	IC50
C#Cc1ccc(F)c(Nc2ncnc3cc(OC)c(OC)cc23)c1	0.39 µM
C#Cc1ccc(F)c(Nc2ncnc3cc(I)ccc23)c1	> 5 µM
C#Cc1cc(Nc2ncnc3ccc(I)cc23)ccc1Cl	> 5 µM

What value of IC50 has been reported for the following compound? `C#Cc1cc(Nc2ncnc3cc(I)ccc23)ccc1Cl` > 5 µM

Then what about the compound `C#Cc1ccc(F)c(Nc2ncnc3ccc(I)cc23)c1` ? > 5 µM

Then what about the compound `C#Cc1cccc(Nc2ncnc3cc(I)ccc23)c1F` ? > 5 µM

Then what about the compound `C#Cc1cc(Nc2ncnc3cc(I)ccc23)ccc1F` ? > 5 µM

Then what about the compound `C#Cc1cc(Nc2ncnc3cc(OC)c(OC)cc23)ccc1Cl` ? 0.39 µM

Then what about the compound `C#Cc1cccc(Nc2ncnc3ccc(I)cc23)c1F` ? > 5 µM

Then what about the compound `C#Cc1cc(Nc2ncnc3cc(C#N)ccc23)ccc1Cl` ? > 5 µM

Then what about the compound `C#Cc1ccc(F)c(Nc2ncnc3cc(C#N)ccc23)c1` ? > 5 µM

Then what about the compound `C#Cc1cccc(Nc2ncnc3cc(OC)c(OC)cc23)c1F` ? 0.4 µM

Then what about the compound `C#Cc1cc(Nc2ncnc3ccc(I)cc23)ccc1F` ? > 5 µM

Then what about the compound `C#Cc1cc(Nc2ncnc3cc(C#N)ccc23)ccc1F` ? > 5 µM

Then what about the compound `C#Cc1cc(Nc2ncnc3cc(OC)c(OC)cc23)ccc1F` ? 0.14 µM

Then what about the compound `C#Cc1cccc(Nc2ncnc3cc(C#N)ccc23)c1F` ? > 5 µM
